- subject_of_test: T1, SARS-CoV-2 receptor binding domain with N501Y (SARS-CoV-2, UniProt P0DTC2 330-532)
- T1 construct: range 330-532; also called RBD-N501Y; RBD N501Y
- test_details: BLI, RBD immobilised on AR2G biosensor, 1:1 fit
t if Kd is below 0.7 nM. f if not; exact matches included in f.

# binder, assigned_category
measured = [
    ("Fab of antibody 158 (Fab, V domains shown, also called 158 Fab; Fab 158) VH: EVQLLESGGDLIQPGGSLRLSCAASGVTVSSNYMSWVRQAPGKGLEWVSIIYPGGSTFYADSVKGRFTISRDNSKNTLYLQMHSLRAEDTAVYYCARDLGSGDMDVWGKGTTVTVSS VL: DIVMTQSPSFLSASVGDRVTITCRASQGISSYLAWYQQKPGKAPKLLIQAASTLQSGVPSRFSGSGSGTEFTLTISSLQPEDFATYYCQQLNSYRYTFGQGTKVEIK", "f"),
    ("Fab of antibody 58 (Fab, V domains shown) VH: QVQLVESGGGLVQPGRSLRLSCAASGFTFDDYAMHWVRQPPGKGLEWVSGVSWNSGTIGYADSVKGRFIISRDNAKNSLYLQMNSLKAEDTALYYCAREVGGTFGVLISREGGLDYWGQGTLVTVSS VL: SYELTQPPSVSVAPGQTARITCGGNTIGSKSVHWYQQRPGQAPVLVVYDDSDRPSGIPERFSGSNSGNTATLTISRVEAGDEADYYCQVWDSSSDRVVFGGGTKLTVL", "t"),
    ("Fab of antibody 222 (Fab, V domains shown) VH: EVQLVESGGGLIQPGGSLRLSCAASGLTVSSNYMSWVRQAPGKGLEWVSVIYSGGSTFYADSVKGRFTISRDNSKNTLYLQMNSLGAEDTAVYYCARGEGSPGNWFDPWGQGTLVTVSS VL: DVVMTQSPGTLSLSPGERATLSCRASQSVPSSYLAWYQQKPGQAPRLLIYGASTRATGIPDRFSGSGSGTDFTLTISRLEPEDFAVYYCQHYDTSPRFGGGTKVDIK", "t"),
    ("Fab of antibody 398 (Fab, V domains shown) VH: QVQLVESGGGLVQPGGSLRLSCAASGFTVSSNYMTWVRQAPGKGLEWVSVIYSGGSTYYADSVKGRFTISRDNSKNTLYLQMNSLRADDTAVYYCARDSTADYDFWSGYYVGAFHIWGQGTMVTVSS VL: QTVLTQPASVSGSPGQSITISCTGTSSDVGGYNYVSWYQQHPGKAPKLMIYEVTKRPSGVPDRFSGSKSGNTASLTVSGLQAEDEADYYCSSYAGSNNWVFGGGTKLTVL", "f"),
    ("Fab of antibody 88 (Fab, V domains shown, also called 88 Fab; Fab 88) VH: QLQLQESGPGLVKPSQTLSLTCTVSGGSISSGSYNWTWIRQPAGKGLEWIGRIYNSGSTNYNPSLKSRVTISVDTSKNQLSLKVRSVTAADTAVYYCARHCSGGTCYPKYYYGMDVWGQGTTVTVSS VL: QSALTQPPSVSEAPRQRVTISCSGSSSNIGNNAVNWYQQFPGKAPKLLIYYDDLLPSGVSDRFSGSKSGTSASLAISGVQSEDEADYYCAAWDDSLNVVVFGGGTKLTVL", "t"),
    ("Fab of antibody 318 (Fab, V domains shown) VH: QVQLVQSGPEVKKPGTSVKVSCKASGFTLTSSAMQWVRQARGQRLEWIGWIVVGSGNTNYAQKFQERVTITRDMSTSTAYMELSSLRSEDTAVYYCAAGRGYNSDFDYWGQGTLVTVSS VL: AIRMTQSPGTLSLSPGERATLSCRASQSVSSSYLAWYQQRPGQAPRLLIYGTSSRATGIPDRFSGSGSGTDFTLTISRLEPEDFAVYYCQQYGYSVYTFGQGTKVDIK", "f"),
]

Switching to the query record.
For Fab of antibody 269 (Fab, V domains shown, also called 269 Fab; COVOX-269) VH: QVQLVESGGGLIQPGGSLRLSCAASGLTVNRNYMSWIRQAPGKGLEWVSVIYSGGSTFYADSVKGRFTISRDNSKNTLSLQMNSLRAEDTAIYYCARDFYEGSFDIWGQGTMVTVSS VL: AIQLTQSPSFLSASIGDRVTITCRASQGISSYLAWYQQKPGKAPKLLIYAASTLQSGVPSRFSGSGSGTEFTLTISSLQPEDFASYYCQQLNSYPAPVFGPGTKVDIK , is the recorded Kd below the cut-off of 0.7 nM?
f
